- assay system: MyD88^TIR (Homo sapiens, UniProt Q99836)
- Construct: MyD88 (residues 148–296); 6xHis; made in house; host or cells: E. coli BL21 (DE3)
- Sequence (Q99836 148-296): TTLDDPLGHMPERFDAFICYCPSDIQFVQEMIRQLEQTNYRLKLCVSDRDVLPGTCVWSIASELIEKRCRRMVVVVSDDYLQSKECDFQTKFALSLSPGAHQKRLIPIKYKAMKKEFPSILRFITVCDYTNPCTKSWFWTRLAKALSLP
- assay details: T‐Surf phage library (P8 and P3) selection against MyD88^TIR, four rounds, NGS read counts
- Format: binding
- condition label: P3_MyD88: rank by count before grouping
value type: Rank (before)

In the examples that follow, each entry is paired with its recorded Rank (before).
- record sequence: "NQWLNSLTAPANPSDW"
  Rank (before): 3469
- record sequence: "SSFREGLWRLPELSRK"
  Rank (before): 3183
- record sequence: "LKVEIWLQTLEKAEKP"
  Rank (before): 2472
- record sequence: "LKWGDPYFCSKLRYPM"
  Rank (before): 2415
- record sequence: "NQWRHALTAEANLSGW"
  Rank (before): 3472

P: RELGVVDDGSVSALEM
Q: YTALANSGCHTFRDND
R: WFWDKLIYALSRNPH
// ranking: key=Rank (before), reverse=True Form field (ranking): labels in requested order.
P, Q, R
(P: 2692, Q: 1635, R: 549)

I: EWIREQLRPALKNGW
II: MNWCMCGAAKRIAWW
Could you kindly indicate whether I or II has the higher Rank (before) value? Label of pick, please.
I

a: EWIREHLRLALKERLP
b: SSRRERLWRLLELSKK
c: SSLREGLWPLLELSKK
Arrange the 3 sequences by rising Rank (before), starting with the smallest. Please list the labels according to the requested order.
c, a, b

A: YAFTGHPPRYLVQRGV
B: HLRKEFDKRLITSFKD
# min-compare on Rank (before) between A and B Refer to your chosen item by its label in the answer.
A
(A: 1536, B: 2800)
